System: Saccharomyces cerevisiae
method: protein stability index of tFT-peptide fusion (C-terminal peptide) (PSI (0-1 scale)); higher = more stable (slower turnover)
test-conditions: genetic background: das1 deletion; temperature: 30 C
measurement-name: protein stability index
One number for each entry.

These recorded examples may help you get a feel for the data.
[
  {
    "entry-sequence": "RAVTKYSSSTQA [HTB1 C-terminal 12 aa]",
    "protein stability index": 0.707
  },
  {
    "entry-sequence": "VEMAVKFGKNAF [RIB4 C-terminal 12 aa]",
    "protein stability index": 0.696
  },
  {
    "entry-sequence": "TPLGPKPDIRPP [GTO3 C-terminal 12 aa]",
    "protein stability index": 0.712
  },
  {
    "entry-sequence": "VSIKKLGRKLEN [FYV6 C-terminal 12 aa]",
    "protein stability index": 0.727
  },
  {
    "entry-sequence": "SQFVNDPFWANI [HIS2 C-terminal 12 aa]",
    "protein stability index": 0.757
  },
  {
    "entry-sequence": "LNKKSSVKILLY [CMS1 C-terminal 12 aa]",
    "protein stability index": 0.693
  }
]

Report protein stability index for every entry below.
1. KLMVEEINLDID [FZO1 C-terminal 12 aa]
2. EQGGEGVQCASQ [YDJ1 C-terminal 12 aa]
3. NSISPPPRKGFI [YGL006W-A C-terminal 12 aa]
4. RDLFEIYQKMMQ [MUK1 C-terminal 12 aa]
5. VETELEMVAEKA [YEH1 C-terminal 12 aa]
6. KAPKSPEVIEID [UFD1 C-terminal 12 aa]

# output
[0.705, 0.686, 0.718, 0.725, 0.646, 0.698]

The measurements presented in this section are drawn from the supplement of paper PMC10724198.
